Tested on: Escherichia coli TOP10;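 note: peptides expressed intracellularly from a pBAD plasmid library in pooled LB shake-flask culture, induced with 0.3% L-arabinose, DNA abundance read by NGS, three biological replicates, DESeq2 with apeglm shrinkage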
Test: shrunken log2 fold change of peptide-encoding DNA abundance (4.5 h post-induction vs induction); higher = less antimicrobial activity (less host growth inhibition)
Conditions: time post-induction: 4.5 h; library: site-saturation at positions 5, 18, 19, 20
Please note: true applies when shrunken log2 fold change is -0.2 or greater, and false applies otherwise.

Consider the following illustrative entries.
> print(dat)
            chain.sequence  assigned.label
1  RRIRNRPPRLPRPRPRPKDVPRP            true
2  RRIRERPPRLPRPRPRPSRNPRP           false
3  RRIRTRPPRLPRPRPRPMKKPRP            true
4  RRIRARPPRLPRPRPRPPKYPRP            true
5  RRIRKRPPRLPRPRPRPKQQPRP            true

# input Entry `RRIRERPPRLPRPRPRPLFMPRP` : is its shrunken log2 fold change no less than -0.2?
# output false

# input Confirm if shrunken log2 fold change reported for the sequence `RRIRCRPPRLPRPRPRPRHIPRP` is -0.2 or above.
# output false

# input State whether the measured shrunken log2 fold change reaches -0.2, counting equality as reaching it, for `RRIRPRPPRLPRPRPRPPVVPRP`
# output true

# input Please check the record `RRIRARPPRLPRPRPRPEAEPRP` and state if its shrunken log2 fold change is at or above -0.2.
# output true

# input Quick check, shrunken log2 fold change >= -0.2? `RRIRFRPPRLPRPRPRPFAPPRP`
# output true

# input Record `RRIRSRPPRLPRPRPRPTNQPRP` ; criterion: shrunken log2 fold change no lower than -0.2. Met?
# output false

# input Form field: shrunken log2 fold change at least -0.2? Entry: `RRIRKRPPRLPRPRPRPFIQPRP`
# output true

# input Quick check, shrunken log2 fold change >= -0.2? `RRIRIRPPRLPRPRPRPCSPPRP`
# output false

# input Could you tell me if the measured shrunken log2 fold change of `RRIRPRPPRLPRPRPRPEEKPRP` reaches -0.2 or more?
# output true

# input Does shrunken log2 fold change meet or surpass -0.2 for `RRIRYRPPRLPRPRPRPVQRPRP` ?
# output true

# input Decide: is the reported value of shrunken log2 fold change for `RRIRFRPPRLPRPRPRPINPPRP` equal to or greater than -0.2?
# output false

# input Given `RRIRERPPRLPRPRPRPSCAPRP` , state whether its shrunken log2 fold change is at least -0.2.
# output true

# input I'd appreciate it if you could say whether `RRIRRRPPRLPRPRPRPYAIPRP` has shrunken log2 fold change at least equal to -0.2.
# output false
